- System: MALME-3M melanoma
- procedure.text: NCI tumour cell line growth inhibition, 48 h
Listing of recorded TGI by entry.

>  <compound>
CC(=O)OCC1OC(n2c(=O)n(-c3ccccc3)c(=O)c3cc(Br)cc(Br)c32)C(OC(C)=O)C(OC(C)=O)C1OC(C)=O (centres undefined)

>  <TGI>
> 100 µM

$$$$
>  <compound>
Cc1cc2c(cc1C)C(=O)C1(C2)Cc2c(ccc(C)c2C)C1=O (centres undefined)

>  <TGI>
> 100 µM

$$$$
>  <compound>
COc1ccc(/C=C2\SC(c3ccc(OC)cc3)N(NC(=O)Cc3ccccc3)C2=O)cc1 (centres undefined)

>  <TGI>
> 100 µM

$$$$
>  <compound>
CCCc1c(C(=O)OCC)[nH]c(-c2ccc(-c3[nH]c(C(=O)OCC)c(CCC)c3C(=O)OCC)o2)c1C(=O)OCC

>  <TGI>
> 100 µM

$$$$
>  <compound>
COc1ccc(N2C(=O)c3cccnc3S2(=O)=O)cc1

>  <TGI>
> 100 µM

$$$$
>  <compound>
CC#Cc1cc2c(cc1O)CC[C@@H]1[C@@H]2CC[C@]2(C)[C@@H](O)CC[C@@H]12

>  <TGI>
18.3 µM

$$$$
>  <compound>
O=c1cc(-c2ccccc2)oc2ccc(-c3ccc4oc(-c5ccccc5)cc(=O)c4c3)cc12

>  <TGI>
34.7 µM

$$$$
>  <compound>
Cn1c(=O)c2c(nc(N)n2C2OC(CO)C(O)C2O)n(C)c1=O (centres undefined)

>  <TGI>
> 100 µM

$$$$
>  <compound>
CCOC(=O)c1ccc(Nc2sc(C(=O)c3cccc([N+](=O)[O-])c3)c(N)c2C#N)cc1

>  <TGI>
23 µM

$$$$

---

- System: SF-295 CNS
- procedure.text: NCI tumour cell line growth inhibition, 48 h; in the data active = GI50 below about 0.43 µM; inactive = the rest
Labels: active, inactive

>  <compound>
CO[C@H]1C[C@@H]2CC[C@@H](C)[C@@](O)(O2)C(=O)C(=O)N2CCCC[C@H]2C(=O)O[C@H]([C@H](C)C[C@@H]2CC[C@@H](OP(C)(C)=O)[C@H](OC)C2)CC(=O)[C@H](C)/C=C(\C)[C@@H](O)[C@@H](OC)C(=O)[C@H](C)C[C@H](C)/C=C/C=C/C=C/1C

>  <target.or.system>
SF-295 CNS

>  <qualitative.label>
active

$$$$
>  <compound>
Fc1ccc(-c2nnc3sc(COc4ccccc4Cl)nn23)cc1Cl

>  <target.or.system>
SF-295 CNS

>  <qualitative.label>
inactive

$$$$
>  <compound>
Nc1c(C(=O)c2cccc(C#CCN3CCOCC3)c2)cnn1-c1ccc(F)cc1

>  <target.or.system>
SF-295 CNS

>  <qualitative.label>
inactive

$$$$
>  <compound>
C[C@H]1[C@H](C)CC[C@]2(C(=O)O)CC[C@]3(C)C(=CC[C@@H]4[C@@]5(C)CC[C@H](OC(=O)/C=C/c6ccc(O)cc6)C(C)(C)[C@@H]5CC[C@]43C)[C@H]12

>  <target.or.system>
SF-295 CNS

>  <qualitative.label>
inactive

$$$$
>  <compound>
COc1cc2c(c(OC)c1OC)-c1ccc(SC)c(=O)cc1[C@@H](NCc1cccc(C#N)c1)CC2

>  <target.or.system>
SF-295 CNS

>  <qualitative.label>
active

$$$$
>  <compound>
O=C(Nc1ccccc1)NS(=O)(=O)c1ccc(N2N=C3c4ccccc4CC3C2c2ccccn2)cc1 (stereo not drawn)

>  <target.or.system>
SF-295 CNS

>  <qualitative.label>
inactive

$$$$
>  <compound>
COc1cc2nc(N3CCCC3)nc(Nc3ccccc3)c2cc1OC

>  <target.or.system>
SF-295 CNS

>  <qualitative.label>
inactive

$$$$
>  <compound>
C/C(=N\NC(=O)c1ccccc1O)c1cccc(/C(C)=N/NC(=O)c2ccccc2O)n1

>  <target.or.system>
SF-295 CNS

>  <qualitative.label>
active

$$$$
